# credit: ChEMBL document CHEMBL3792387

Molecular target: Rho-associated protein kinase 2 (Homo sapiens, UniProt O75116)
Sequence (O75116 whole entry): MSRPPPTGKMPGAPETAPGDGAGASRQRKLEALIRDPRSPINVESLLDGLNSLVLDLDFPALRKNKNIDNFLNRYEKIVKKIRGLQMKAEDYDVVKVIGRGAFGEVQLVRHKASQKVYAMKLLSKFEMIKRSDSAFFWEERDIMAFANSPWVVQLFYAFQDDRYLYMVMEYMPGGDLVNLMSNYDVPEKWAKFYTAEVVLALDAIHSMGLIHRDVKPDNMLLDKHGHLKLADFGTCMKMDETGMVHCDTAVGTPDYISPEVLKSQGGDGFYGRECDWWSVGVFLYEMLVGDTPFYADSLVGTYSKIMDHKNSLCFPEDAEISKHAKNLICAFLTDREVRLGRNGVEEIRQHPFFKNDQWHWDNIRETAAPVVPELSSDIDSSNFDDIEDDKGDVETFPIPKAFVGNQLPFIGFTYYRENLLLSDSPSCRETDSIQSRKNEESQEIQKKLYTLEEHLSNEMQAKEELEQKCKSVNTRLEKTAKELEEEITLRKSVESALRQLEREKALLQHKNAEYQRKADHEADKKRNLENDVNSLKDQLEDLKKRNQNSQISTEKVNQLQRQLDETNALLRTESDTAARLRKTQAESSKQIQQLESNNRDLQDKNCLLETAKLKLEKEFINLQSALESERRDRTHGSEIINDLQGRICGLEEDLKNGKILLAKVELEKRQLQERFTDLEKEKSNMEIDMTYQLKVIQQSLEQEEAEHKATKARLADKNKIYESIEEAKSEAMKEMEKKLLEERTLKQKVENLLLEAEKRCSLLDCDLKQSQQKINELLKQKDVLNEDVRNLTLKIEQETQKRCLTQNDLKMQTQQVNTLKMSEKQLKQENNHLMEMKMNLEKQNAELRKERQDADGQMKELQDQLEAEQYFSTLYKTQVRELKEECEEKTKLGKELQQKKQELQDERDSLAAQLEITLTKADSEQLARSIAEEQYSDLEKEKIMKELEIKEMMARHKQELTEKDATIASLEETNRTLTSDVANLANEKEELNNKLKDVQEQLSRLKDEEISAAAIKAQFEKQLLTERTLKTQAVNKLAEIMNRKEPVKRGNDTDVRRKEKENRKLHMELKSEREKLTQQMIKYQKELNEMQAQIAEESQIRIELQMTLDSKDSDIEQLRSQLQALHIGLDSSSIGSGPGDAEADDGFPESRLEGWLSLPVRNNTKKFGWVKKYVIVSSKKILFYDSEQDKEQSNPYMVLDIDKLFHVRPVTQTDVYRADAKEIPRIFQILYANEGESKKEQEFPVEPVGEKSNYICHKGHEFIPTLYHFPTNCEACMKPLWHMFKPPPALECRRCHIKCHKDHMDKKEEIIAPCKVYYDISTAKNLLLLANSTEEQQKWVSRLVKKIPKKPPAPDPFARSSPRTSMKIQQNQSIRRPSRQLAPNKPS
Parameter Measured: IC50 (nM)
Numbers only here, please. The scale is nM.

## Task # lookup: IC50 of C[C@@H](N)[C@H]1CC[C@H](C(=O)Nc2ccnc3[nH]ccc23)CC1
## Result 10

###

Target: Rho-associated protein kinase 1 (Homo sapiens)
Sequence (Q13464 whole entry): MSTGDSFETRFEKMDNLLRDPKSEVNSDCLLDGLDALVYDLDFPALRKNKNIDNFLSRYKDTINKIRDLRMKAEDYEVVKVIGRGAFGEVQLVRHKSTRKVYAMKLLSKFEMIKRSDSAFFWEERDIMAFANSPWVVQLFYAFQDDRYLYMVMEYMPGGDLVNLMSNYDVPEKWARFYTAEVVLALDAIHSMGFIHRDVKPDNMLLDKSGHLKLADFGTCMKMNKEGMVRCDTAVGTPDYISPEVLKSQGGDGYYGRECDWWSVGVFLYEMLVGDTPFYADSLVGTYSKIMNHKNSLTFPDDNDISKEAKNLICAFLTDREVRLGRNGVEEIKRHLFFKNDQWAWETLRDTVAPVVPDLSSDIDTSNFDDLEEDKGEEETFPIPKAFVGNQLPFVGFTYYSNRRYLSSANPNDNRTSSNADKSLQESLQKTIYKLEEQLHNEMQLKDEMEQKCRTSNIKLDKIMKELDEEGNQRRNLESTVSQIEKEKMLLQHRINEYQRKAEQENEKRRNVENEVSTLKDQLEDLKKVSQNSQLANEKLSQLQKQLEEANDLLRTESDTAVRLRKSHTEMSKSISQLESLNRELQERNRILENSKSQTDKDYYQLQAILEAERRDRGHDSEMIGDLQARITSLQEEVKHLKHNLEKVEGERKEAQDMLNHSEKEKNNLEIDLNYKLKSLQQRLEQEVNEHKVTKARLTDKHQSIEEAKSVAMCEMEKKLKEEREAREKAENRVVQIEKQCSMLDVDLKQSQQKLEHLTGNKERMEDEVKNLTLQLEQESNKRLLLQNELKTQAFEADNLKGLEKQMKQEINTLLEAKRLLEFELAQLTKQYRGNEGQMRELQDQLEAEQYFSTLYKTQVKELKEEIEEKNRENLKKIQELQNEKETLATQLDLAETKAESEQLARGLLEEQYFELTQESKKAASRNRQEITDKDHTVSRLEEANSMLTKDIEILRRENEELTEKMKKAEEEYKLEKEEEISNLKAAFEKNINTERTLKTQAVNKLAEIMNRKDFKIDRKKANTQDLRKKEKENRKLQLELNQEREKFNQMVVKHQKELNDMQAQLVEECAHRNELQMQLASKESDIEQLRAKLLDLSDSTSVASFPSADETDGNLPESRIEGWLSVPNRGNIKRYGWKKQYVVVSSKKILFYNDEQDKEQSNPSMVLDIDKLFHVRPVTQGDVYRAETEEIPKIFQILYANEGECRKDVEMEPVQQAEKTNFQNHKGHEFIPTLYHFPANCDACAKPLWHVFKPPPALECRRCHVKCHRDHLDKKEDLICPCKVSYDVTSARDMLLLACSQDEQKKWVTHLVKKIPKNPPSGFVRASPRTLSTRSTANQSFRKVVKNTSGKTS
Test: Inhibition of ROCK-1 (unknown origin)
Parameter Measured: IC50 (nM)
Numbers only here, please. The scale is nM.

## Task # lookup: IC50 of C[C@@H](N)[C@H]1CC[C@H](C(=O)Nc2ccnc3[nH]ccc23)CC1
## Result 30

###

Test: Inhibition of PKA (unknown origin) using cyclic AMP response element binding protein as substrate after 5 mins in presence of [gamma-32P]-ATP
Parameters: species or system Homo sapiens
Parameter Measured: IC50 (µM)
Numbers only here, please. The scale is µM.

## Task # lookup: IC50 of Cc1cncc2cccc(S(=O)(=O)N3CCCNC[C@@H]3C)c12
## Result 3.03
